meta.source: PubChem BioAssay (NCI)

Recorded growth values for a group of molecules are listed next.
# System: OVCAR-5 ovarian
# ASSAY: NCI-60 one-dose screen, 48 h (100 = growth as untreated, 0 = no growth, -100 = all killed)
# ASSAY CONTEXT: 10 µM unless noted
This is part of a sample that, as a whole, favours compounds with a hit. Of some 83,000 tested, about 20% had one in any assay.
Reply with just the number (in %).

Take a look at these entries with their results.
## Input Recall the reported growth of CCOc1c(B(O)O)cccc1-c1nc2ccc3[nH]ncc3c2c2c1CCCC2 on OVCAR-5 ovarian and write it down.
## Output 74.7

## Input Enter recorded growth with OVCAR-5 ovarian for CCc1ccc(Oc2c(-c3ccc(OCCc4cccc(C(F)(F)F)c4)cc3O)n[nH]c2C(F)(F)F)cc1 here.
## Output 84.3

## Input Provide growth, tested on OVCAR-5 ovarian, for Fc1cc(-c2nnc3n2NC(=Nc2ccc(Cl)cc2)CS3)c(Cl)cc1Cl .
## Output 80.3

## Input // output growth; input CCCCCCCCCCCCCCCCCCOc1ccccc1CCCOP(=O)(O)OCC[N+](C)(C)C ; system OVCAR-5 ovarian
## Output 75.6

## Input Check OVCAR-5 ovarian data and give growth for Cc1ccc(-c2nc(N3CCN(C(=O)Nc4ccc(Cl)c(C(F)(F)F)c4)CC3)c3ccccc3n2)cc1 .
## Output 86.9

## Input Give growth for this entry on OVCAR-5 ovarian: S=c1nc(-c2ccccc2)oc(=NC2CCCCC2)n1C1CCCCC1
## Output 86.2

Next:
## Input Name the recorded growth of CCOC(=O)/C(C#N)=C\Nc1ccc2ncnc(Nc3ccc(Cl)cc3Cl)c2c1 , assay system OVCAR-5 ovarian.
## Output 82.2

* * *

Attribute: growth
# Tested on: NCI/ADR-RES ovarian
# ASSAY: NCI-60 one-dose screen, 48 h (100 = growth as untreated, 0 = no growth, -100 = all killed)
# ASSAY CONTEXT: 10 µM unless noted
About 83,000 compounds went through this panel and 20% of them were active in at least one assay; those are over-represented in the sample as a whole. Activity calls are given as the source filed them. How the source made its calls: active means growth percent below 10; inactive means the rest.

Observe how each entry below is paired with its result.
## Input Please report growth with NCI/ADR-RES ovarian for item O=C(N/N=C/[C@H](O)[C@@H](O)[C@@H](O)[C@H](O)CO)c1ccc(NC(=O)c2cccnc2)cc1 .
## Output 106% (inactive)

## Input State, for NCI/ADR-RES ovarian, measured growth of the compound listed here: O=C1/C(=C/c2ccc(F)cc2)Sc2c(Br)cccc21
## Output 71.9% (inactive)

## Input Report growth from NCI/ADR-RES ovarian testing of COc1ccc(-c2cc3c4c(nc5ccccc5c4c2)CC(c2cc(OC)c(OC)c(OC)c2)O3)cc1 (stereo not given)
## Output 41.4% (inactive)

## Input State, for NCI/ADR-RES ovarian, measured growth of the compound listed here: CCCCC1CCCC12NC(=O)NC2=O (stereo not given)
## Output 92.9% (inactive)

## Input Give growth for this entry on NCI/ADR-RES ovarian: O=C(COc1ccc(/C=C2\Cc3ccc(Cl)cc3C2=O)cc1)Nc1nc2ccccc2s1
## Output 99.2% (inactive)

## Input Report value only: growth, NCI/ADR-RES ovarian, Cc1ccc(S(=O)(=O)Oc2ccc(NC(=O)c3ccc(Cl)cc3)cc2)cc1
## Output 99.4% (inactive)

Further cases:
## Input Return reported growth for target or system NCI/ADR-RES ovarian, item CN1CCN(CC(=O)N2c3cccc4cccc(c34)N(C(=O)CN3CCN(C)CC3)C2c2cn(-c3ccccc3)nc2-c2cccc([N+](=O)[O-])c2)CC1 .
## Output 72.4% (inactive)

## Input Given N#Cc1ccc(NC(=O)c2sc3nc4c(cc3c2N)C(=O)CCC4)cc1 , report its growth on NCI/ADR-RES ovarian.
## Output 106% (inactive)

## Input Enter recorded growth with NCI/ADR-RES ovarian for COc1ccc(S(=O)(=O)n2cc(C3OC(c4cc(OC)c(OC)c(OC)c4)=NN3C(C)=O)c3ccccc32)cc1OC (stereo not given) here.
## Output 81.7% (inactive)

## Input Please indicate recorded growth of O=C(/C=C/c1ccc([N+](=O)[O-])o1)NNC(=O)c1cc2ccccc2cc1O measured with NCI/ADR-RES ovarian.
## Output 5.33% (active)

## Input Enter measured growth, system NCI/ADR-RES ovarian, for the compound shown: COc1cc(/C=C2\C(=O)Nc3ccc(Br)cc32)cc(OC)c1OC
## Output 42.7% (inactive)
